B1: Zinc finger MYM-type protein 6, residues 427 to 504; numbered along this chain, O95789 (parent)
chain: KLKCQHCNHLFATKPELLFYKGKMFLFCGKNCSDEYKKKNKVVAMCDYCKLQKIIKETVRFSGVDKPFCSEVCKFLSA

variants of: B1; experiment: abundance fitness (aPCA) (normalised: wild type 0, dead -1); higher = more abundant; growth selection in yeast, the domain comes from the species named; conditions: Homo sapiens
Criterion: abundance fitness meeting or surpassing -0.4. Met: MET. Not met: NOT MET.

Please indicate if the recorded abundance fitness for Y48C meets or exceeds -0.4.
MET

Please indicate if the recorded abundance fitness for D65I meets or exceeds -0.4.
NOT MET

Please indicate if the recorded abundance fitness for V72K meets or exceeds -0.4.
MET

Please indicate if the recorded abundance fitness for K30D meets or exceeds -0.4.
MET

Please indicate if the recorded abundance fitness for D47T meets or exceeds -0.4.
MET

Please indicate if the recorded abundance fitness for T58R meets or exceeds -0.4.
MET

Please indicate if the recorded abundance fitness for L26N meets or exceeds -0.4.
MET

Please indicate if the recorded abundance fitness for V59P meets or exceeds -0.4.
MET

Please indicate if the recorded abundance fitness for G63A meets or exceeds -0.4.
NOT MET

Please indicate if the recorded abundance fitness for M45A meets or exceeds -0.4.
MET

Please indicate if the recorded abundance fitness for D47I meets or exceeds -0.4.
MET

Please indicate if the recorded abundance fitness for C49R meets or exceeds -0.4.
MET

Please indicate if the recorded abundance fitness for K74A meets or exceeds -0.4.
MET

Please indicate if the recorded abundance fitness for E57L meets or exceeds -0.4.
NOT MET

Please indicate if the recorded abundance fitness for A78G meets or exceeds -0.4.
MET

Please indicate if the recorded abundance fitness for K39P meets or exceeds -0.4.
MET

Please indicate if the recorded abundance fitness for E71W meets or exceeds -0.4.
NOT MET

Please indicate if the recorded abundance fitness for V43A meets or exceeds -0.4.
NOT MET

Please indicate if the recorded abundance fitness for C32V meets or exceeds -0.4.
NOT MET

Please indicate if the recorded abundance fitness for G22M meets or exceeds -0.4.
MET

Please indicate if the recorded abundance fitness for K74N meets or exceeds -0.4.
NOT MET

Please indicate if the recorded abundance fitness for S33T meets or exceeds -0.4.
MET
